IC50 values by entry
# assaySystem: NLRP3 inflammasome (Homo sapiens)
# Sequence (Q96P20 whole entry): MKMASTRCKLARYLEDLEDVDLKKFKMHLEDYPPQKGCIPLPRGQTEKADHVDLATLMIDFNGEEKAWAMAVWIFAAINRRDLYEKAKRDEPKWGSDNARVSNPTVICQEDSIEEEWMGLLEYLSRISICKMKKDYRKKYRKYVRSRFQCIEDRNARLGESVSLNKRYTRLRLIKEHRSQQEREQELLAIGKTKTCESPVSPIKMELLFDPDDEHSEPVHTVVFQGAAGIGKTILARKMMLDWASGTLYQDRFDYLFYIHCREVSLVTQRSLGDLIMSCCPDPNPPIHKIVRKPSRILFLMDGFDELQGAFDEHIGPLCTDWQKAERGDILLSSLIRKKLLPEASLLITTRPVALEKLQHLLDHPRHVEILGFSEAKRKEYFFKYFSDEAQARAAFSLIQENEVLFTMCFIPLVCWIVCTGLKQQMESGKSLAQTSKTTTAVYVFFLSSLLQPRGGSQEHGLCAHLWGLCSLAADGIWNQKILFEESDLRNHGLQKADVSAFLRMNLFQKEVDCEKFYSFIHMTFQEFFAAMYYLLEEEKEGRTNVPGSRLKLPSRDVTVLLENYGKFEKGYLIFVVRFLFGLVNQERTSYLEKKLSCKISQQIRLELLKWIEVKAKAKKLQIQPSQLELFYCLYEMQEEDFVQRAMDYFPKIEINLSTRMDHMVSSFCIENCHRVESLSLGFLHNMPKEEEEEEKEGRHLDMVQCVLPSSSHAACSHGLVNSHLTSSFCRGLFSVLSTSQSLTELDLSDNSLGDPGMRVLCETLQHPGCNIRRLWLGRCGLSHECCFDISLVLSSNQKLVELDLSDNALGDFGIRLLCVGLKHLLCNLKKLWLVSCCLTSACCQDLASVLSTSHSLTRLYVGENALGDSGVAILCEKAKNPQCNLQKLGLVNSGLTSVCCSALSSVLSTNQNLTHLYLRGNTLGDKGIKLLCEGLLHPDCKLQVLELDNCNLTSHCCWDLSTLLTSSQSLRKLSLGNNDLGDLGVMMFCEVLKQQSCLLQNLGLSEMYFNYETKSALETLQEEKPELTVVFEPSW
# assayOverview: THP-1 ASC-GFP speck assay
# Assay type: cell-based
# Parameters: host or cells: THP-1 ASC-GFP cells, PMA-differentiated, LPS-primed, nigericin-stimulated
# assaySetup: THP-1 ASC-GFP cells, PMA differentiated, LPS primed, 10 μM nigericin; read-out: THP1 ASC Speck IC50

molecule: NS(=O)(=NC(=O)Nc1c2c(cc3c1CCC3)CCC2)c1cnn2c1NCCC2 (single isomer, unassigned) [Example 72]
relation: =
IC50 / nM: 2500
--
molecule: CNCc1cc(C(C)C)c(NC(=O)N=S(N)(=O)c2cnn3c2OCCC3)c(C(C)C)n1 (single isomer, unassigned) [Example 85]
relation: >
IC50 / nM: 20000
--
molecule: CNC1CCOc2c(S(N)(=O)=NC(=O)Nc3c4c(cc5c3CCC5)CCC4)cnn2C1 (single isomer, unassigned) [Example 106]
relation: =
IC50 / nM: 150
